target under test: UniProtKB Q13574
Sequence (Q13574 other isoform, or with tags, fused parts or gaps): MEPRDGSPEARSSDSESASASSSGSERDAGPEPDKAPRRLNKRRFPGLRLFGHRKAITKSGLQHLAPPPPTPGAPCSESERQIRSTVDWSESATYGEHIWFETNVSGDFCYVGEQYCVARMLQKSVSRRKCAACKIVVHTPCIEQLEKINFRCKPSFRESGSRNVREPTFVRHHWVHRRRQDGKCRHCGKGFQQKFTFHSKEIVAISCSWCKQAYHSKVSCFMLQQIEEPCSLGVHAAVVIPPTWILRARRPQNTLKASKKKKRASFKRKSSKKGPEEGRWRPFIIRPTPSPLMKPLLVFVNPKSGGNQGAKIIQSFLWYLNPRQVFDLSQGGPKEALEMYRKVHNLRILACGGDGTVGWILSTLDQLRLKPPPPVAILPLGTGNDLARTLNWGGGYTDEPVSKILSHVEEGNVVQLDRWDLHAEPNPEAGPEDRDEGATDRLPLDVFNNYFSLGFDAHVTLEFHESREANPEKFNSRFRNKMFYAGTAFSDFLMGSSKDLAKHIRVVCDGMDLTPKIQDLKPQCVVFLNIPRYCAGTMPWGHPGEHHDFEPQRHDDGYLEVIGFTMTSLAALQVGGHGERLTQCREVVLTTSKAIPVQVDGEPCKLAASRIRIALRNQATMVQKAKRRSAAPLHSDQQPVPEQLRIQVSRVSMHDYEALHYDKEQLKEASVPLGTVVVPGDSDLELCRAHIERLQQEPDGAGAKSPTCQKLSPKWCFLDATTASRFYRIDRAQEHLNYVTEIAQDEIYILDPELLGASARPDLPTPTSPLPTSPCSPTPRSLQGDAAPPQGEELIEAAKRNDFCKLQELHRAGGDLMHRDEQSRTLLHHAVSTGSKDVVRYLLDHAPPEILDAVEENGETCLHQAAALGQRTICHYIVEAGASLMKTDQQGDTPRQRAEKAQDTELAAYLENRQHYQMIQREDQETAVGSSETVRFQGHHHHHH
method notes: DGKζ LIPGLO assay (extruded liposome substrate, ADP-Glo luminescence)
Assay type: biochemical
test parameters: liposome assay; read-out: DGK zeta LIPGLO IC50
measurement type: IC50 (nM)

# compound, IC50 [nM]
data = [
    ("CC(c1ccc(F)cc1F)N1C[C@H](C)N(c2nc(=O)n(C)c3ccc(C#N)nc23)C[C@H]1C (single isomer, unassigned) [Example 144]", 46),
    ("COC[C@@H]1CN(c2nc(=O)n(C)c3ccc(C#N)nc23)[C@@H](C)CN1C(C)c1ccc(OC(F)(F)F)cc1 (single isomer, unassigned) [Example 176]", 110),
    ("CC[C@@H]1CN(c2nc(=O)n(C)c3ccc(C#N)nc23)[C@@H](C)CN1C(C)c1ccc2c(c1)OC(F)(F)O2 (single isomer, unassigned)", 22),
    ("CC[C@H]1CN(C(C)c2ccc(CN3CC4(COC4)C3)cc2)[C@H](CC)CN1c1nc(=O)n(C)c2ccc(C#N)nc12 (stereo partly drawn) [Example 280]", 125000),
    ("CC[C@H]1CN(C(C)c2ccc(CN3CCC(O)CC3)cc2)[C@H](CC)CN1c1nc(=O)n(C)c2ccc(C#N)nc12 (stereo partly drawn) [Example 286]", 125000),
    ("CC[C@@H]1CN(c2nc(=O)n(C)c3ccc(C#N)nc23)[C@@H](C)CN1C(C)c1ccc(C(F)(F)F)cc1F (single isomer, unassigned) [Example 59]", 260),
    ("CCC(c1ccc(C(F)(F)F)cc1)N1C[C@H](C)N(c2nc(=O)n(C)c3ccc(C#N)nc23)C[C@H]1CC (single isomer, unassigned) [Example 89]", 110),
    ("CCC(c1ccc(OC(F)(F)F)cc1F)N1C[C@H](C)N(c2nc(=O)n(C)c3ccc(C#N)nc23)C[C@H]1CC (single isomer, unassigned) [Example 86]", 2370),
    ("CC[C@H]1CN(C(c2ccc(F)cc2)c2ccon2)[C@H](CC)CN1c1nc(=O)n(C)c2ccc(C#N)nc12 (single isomer, unassigned) [Example 35]", 120),
    ("CC[C@@H]1CN(c2nc(=O)n(C)c3ccc(C#N)nc23)[C@@H](C)CN1C(C)c1ccc(OC(C)C)cc1 (single isomer, unassigned) [Example 52]", 52),
]

1 = CC[C@@H]1CN(c2nc(=O)n(C)c3ccc(C#N)nc23)[C@@H](C)CN1C(C)c1ccc2oc(=O)n(C)c2c1 (stereo partly drawn) [Example 298]
2 = CC(c1ccc(C2CC2)cc1)N1C[C@H](C)N(c2nc(=O)n(C)c3ccc(C#N)nc23)C[C@H]1C (single isomer, unassigned) [Example 4]
Thinking about recorded IC50 values, which is higher, 1 or 2 ? Indicate which entry you chose by stating its label.
2
(2: 760 nM, 1: 380 nM)
